- Assay Target: Progesterone receptor (Bos taurus, UniProt Q690N0)
- Sequence (Q690N0 whole entry): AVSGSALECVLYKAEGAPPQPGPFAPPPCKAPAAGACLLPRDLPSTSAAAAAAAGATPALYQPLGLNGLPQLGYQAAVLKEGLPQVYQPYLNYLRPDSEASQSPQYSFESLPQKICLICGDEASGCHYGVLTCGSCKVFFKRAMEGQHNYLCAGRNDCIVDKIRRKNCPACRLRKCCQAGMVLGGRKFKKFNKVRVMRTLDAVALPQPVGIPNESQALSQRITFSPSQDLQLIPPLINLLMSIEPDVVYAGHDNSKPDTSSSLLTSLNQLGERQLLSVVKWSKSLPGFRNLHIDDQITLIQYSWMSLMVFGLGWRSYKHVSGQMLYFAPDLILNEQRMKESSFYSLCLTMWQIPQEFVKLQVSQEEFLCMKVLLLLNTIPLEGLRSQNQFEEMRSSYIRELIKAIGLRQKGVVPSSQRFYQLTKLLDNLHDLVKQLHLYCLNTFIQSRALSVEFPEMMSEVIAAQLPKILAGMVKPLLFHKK
- Test Protocol: DRUGMATRIX: Progesterone radioligand binding (ligand: [3H] R-5020)
- Type: tissue-based, Uterus
- Condition Summary: Not Active = under 50% inhibition at 10 µM

Compound	Assay Target	IC50
CCCC(=O)Nc1ccc(OCC(O)CNC(C)C)c(C(C)=O)c1 (stereo not given)	Progesterone receptor (Bos taurus, UniProt Q690N0)	Not Active
Clc1ccc2c(c1)C(N1CCNCC1)=Nc1ccccc1O2	Progesterone receptor (Bos taurus, UniProt Q690N0)	Not Active
CC(=O)Nc1ccc(O)cc1	Progesterone receptor (Bos taurus, UniProt Q690N0)	Not Active
N=C(N)NC(=O)c1nc(Cl)c(N)nc1N [AMILORIDE]	Progesterone receptor (Bos taurus, UniProt Q690N0)	Not Active
CC(C)CC(N(C)C)C1(c2ccc(Cl)cc2)CCC1 (stereo not given)	Progesterone receptor (Bos taurus, UniProt Q690N0)	Not Active
CCOC(=O)C(C)(C)Oc1ccc(Cl)cc1 [CLOFIBRATE]	Progesterone receptor (Bos taurus, UniProt Q690N0)	Not Active
CC(=O)N1CCN(c2ccc(OCC3COC(Cn4ccnc4)(c4ccc(Cl)cc4Cl)O3)cc2)CC1 (stereo not given)	Progesterone receptor (Bos taurus, UniProt Q690N0)	Not Active
CC(C)c1nc(CN(C)C(=O)N[C@H](C(=O)N[C@@H](Cc2ccccc2)C[C@H](O)[C@H](Cc2ccccc2)NC(=O)OCc2cncs2)C(C)C)cs1	Progesterone receptor (Bos taurus, UniProt Q690N0)	Not Active
CCC1=C[C@@H]2CN(C1)Cc1c([nH]c3ccccc13)[C@@](C(=O)OC)(c1cc3c(cc1OC)N(C)[C@H]1[C@@](O)(C(=O)OC)[C@H](OC(C)=O)[C@]4(CC)C=CCN5CC[C@]31[C@@H]54)C2	Progesterone receptor (Bos taurus, UniProt Q690N0)	Not Active
C=CCN1CC[C@]23c4c5ccc(O)c4O[C@H]2C(=O)CC[C@@]3(O)[C@H]1C5	Progesterone receptor (Bos taurus, UniProt Q690N0)	Not Active
CC(C)(C(=O)c1cccnc1)c1cccnc1	Progesterone receptor (Bos taurus, UniProt Q690N0)	Not Active
COc1cccc2c1C(=O)c1c(O)c3c(c(O)c1C2=O)C[C@@](O)(C(=O)CO)C[C@@H]3O[C@H]1C[C@H](N)[C@H](O)[C@H](C)O1	Progesterone receptor (Bos taurus, UniProt Q690N0)	Not Active
COc1ccccc1C(=O)N1CCC(Cc2ccccc2)CC1	Progesterone receptor (Bos taurus, UniProt Q690N0)	Not Active
C[N+](C)(C)CCO.[Cl-] [CHOLINE CHLORIDE]	Progesterone receptor (Bos taurus, UniProt Q690N0)	Not Active
C[C@H]1O[C@@H](O[C@H]2[C@@H](O)C[C@H](O[C@H]3[C@@H](O)C[C@H](O[C@H]4CC[C@@]5(C)[C@H](CC[C@@H]6[C@@H]5CC[C@]5(C)[C@@H](C7=CC(=O)OC7)CC[C@]65O)C4)O[C@@H]3C)O[C@@H]2C)C[C@H](O)[C@@H]1O	Progesterone receptor (Bos taurus, UniProt Q690N0)	Not Active

###

- Test Protocol: DRUGMATRIX: Atrial Natriuretic Factor (ANF) radioligand binding (ligand: [125I] ANF (rat))
- Format: cell membranes, Cavia porcellus, Dunkin-Hartley, Adrenal gland, Membrane
- Condition Summary: Not Active = under 50% inhibition at 10 µM
Readout Label: IC50

> print(dat)
                                   compound  readout.label  observed.measurement
1  COc1ccc2[nH]c([S+]([O-])Cc3ncc(C)c(OC)c3C)nc2c1 (stereo not drawn)           IC50            Not Active
2                        CC(=O)Nc1ccc(O)cc1           IC50            Not Active
3                CN(C)/N=N/c1[nH]cnc1C(N)=O           IC50            Not Active
4       Nc1ccn([C@@H]2CS[C@H](CO)O2)c(=O)n1           IC50            Not Active
5   C[N+](C)(C)CCO.[Cl-] [CHOLINE CHLORIDE]           IC50            Not Active
6  CC(C)CC(N(C)C)C1(c2ccc(Cl)cc2)CCC1 (stereo not drawn)           IC50            Not Active
7  C[C@H]1C[C@H]2[C@@H]3CCC4=CC(=O)C=C[C@]4(C)[C@@]3(Cl)[C@@H](O)C[C@]2(C)[C@@]1(O)C(=O)CO           IC50            Not Active
8         Cn1c(=O)c2c(ncn2CC2OCCO2)n(C)c1=O           IC50            Not Active

###

- Assay Target: Neuropeptide Y receptor type 2 (Homo sapiens, UniProt P49146); also: in other assays of this panel Not Active means under 50% inhibition at 10 µM
- Sequence (P49146 whole entry): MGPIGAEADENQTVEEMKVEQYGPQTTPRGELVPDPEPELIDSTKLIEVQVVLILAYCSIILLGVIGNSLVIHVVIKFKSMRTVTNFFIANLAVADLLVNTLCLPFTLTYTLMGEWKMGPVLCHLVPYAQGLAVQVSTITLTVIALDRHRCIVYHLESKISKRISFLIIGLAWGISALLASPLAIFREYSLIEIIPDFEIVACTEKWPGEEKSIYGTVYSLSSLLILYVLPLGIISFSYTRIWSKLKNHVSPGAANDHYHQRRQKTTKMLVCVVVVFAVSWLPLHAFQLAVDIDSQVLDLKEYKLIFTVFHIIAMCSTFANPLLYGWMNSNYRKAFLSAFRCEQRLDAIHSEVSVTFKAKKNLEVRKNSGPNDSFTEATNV
- Assay type: cell membranes, Membrane
- Condition Summary: kan-ts
Readout Label: IC50

> print(dat)
                                   compound  readout.label  observed.measurement
1               CCCCOc1ccc(OCCCN2CCOCC2)cc1           IC50            Not Active
2  CC(=O)CC(c1ccccc1)c1c(O)c2ccccc2oc1=O (stereo unspecified)           IC50            Not Active
3  CN1C(C(=O)Nc2ccccn2)=C(O)c2sccc2S1(=O)=O           IC50            Not Active
4  CCOC(=O)[C@H](CCc1ccccc1)N[C@H]1CCc2ccccc2N(CC(=O)O)C1=O           IC50            Not Active
5        COc1ccccc1C(=O)N1CCC(Cc2ccccc2)CC1           IC50            Not Active
6  CCOC(=O)C(C)(C)Oc1ccc(Cl)cc1 [CLOFIBRATE]           IC50            Not Active

###

- Test Protocol: DRUGMATRIX: beta-Lactamase enzyme inhibition (substrate: Nitrocefin)
- Parameters: species or system Bacillus cereus
- Condition Summary: Not Active = under 50% inhibition at 10 µM
Readout Label: Ki

> print(dat)
                                   molecule  observed.measurement
1  COc1cccc2c1C(=O)c1c(O)c3c(c(O)c1C2=O)C[C@@](O)(C(=O)CO)C[C@@H]3O[C@H]1C[C@H](N)[C@@H](O)[C@H](C)O1 [EPIRUBICIN]            Not Active
2  CCn1cc(C(=O)O)c(=O)c2cc(F)c(N3CCN(C)CC3)cc21            Not Active
3       Nc1c(CC(=O)O)cccc1C(=O)c1ccc(Br)cc1            Not Active

###

- Assay Target: Adenosine receptor A3 (Homo sapiens); also: in other assays of this panel Not Active means under 50% inhibition at 10 µM;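 also: radioligand binding assay with AB-MECA serving as the labeled ligand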
- Sequence (P0DMS8 whole entry): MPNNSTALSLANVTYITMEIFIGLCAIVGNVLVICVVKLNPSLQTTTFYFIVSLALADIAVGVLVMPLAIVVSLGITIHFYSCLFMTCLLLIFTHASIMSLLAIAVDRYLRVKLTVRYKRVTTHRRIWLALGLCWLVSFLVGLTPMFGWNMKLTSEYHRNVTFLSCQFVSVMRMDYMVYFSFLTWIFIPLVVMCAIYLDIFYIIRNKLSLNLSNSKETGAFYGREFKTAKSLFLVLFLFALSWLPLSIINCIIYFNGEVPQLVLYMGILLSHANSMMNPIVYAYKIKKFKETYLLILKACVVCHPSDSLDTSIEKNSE
- Type: cell membranes, CHO-K1, Membrane
- Condition Summary: read-out: Ki
Readout Label: Ki (µM)

> print(dat)
                                   molecule  readout.unit  observed.measurement
1  COC(=O)C1=C(C)NC(C)=C(C(=O)OCC(C)C)C1c1ccccc1[N+](=O)[O-] (stereo not drawn)            µM                  4.02
2  COCCCOc1ccnc(C[S+]([O-])c2nc3ccccc3[nH]2)c1C (stereo not drawn)            µM                  1.82
3  S=C=Nc1cccc2ccccc12 [1-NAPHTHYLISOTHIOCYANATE]            µM                  3.45

###

- Test Protocol: DRUGMATRIX: ATPase, Na+/K+ enzyme inhibition (substrate: ATP)
- Assay type: tissue-based, Sus scrofa, Heart
- Condition Summary: Not Active = under 50% inhibition at 10 µM
Readout Label: IC50

Molecule	Observed Measurement
NC(=O)NO [HYDROXYUREA]	Not Active
CCc1c2c(nc3ccc(OC(=O)N4CCC(N5CCCCC5)CC4)cc13)-c1cc3c(c(=O)n1C2)COC(=O)[C@]3(O)CC [IRINOTECAN]	Not Active
C[C@@H]1C[C@@H]([C@H](O)CC2CC(=O)NC(=O)C2)C(=O)[C@@H](C)C1 [CYCLOHEXIMIDE]	Not Active
CCN1CC(CCN2CCOCC2)C(c2ccccc2)(c2ccccc2)C1=O (centres undefined) [DOXAPRAM]	Not Active
CCC1=C[C@@H]2CN(C1)Cc1c([nH]c3ccccc13)[C@@](C(=O)OC)(c1cc3c(cc1OC)N(C)[C@H]1[C@@](O)(C(=O)OC)[C@H](OC(C)=O)[C@]4(CC)C=CCN5CC[C@]31[C@@H]54)C2 [VINORELBINE]	Not Active
O=C1CC[C@H](N2C(=O)c3ccccc3C2=O)C(=O)N1	Not Active
CC(=O)N[C@@H]1[C@H](Oc2c3cc4cc2Oc2ccc(cc2Cl)[C@@H](O[C@@H]2O[C@@H](CO)[C@@H](O)[C@H](O)[C@@H]2NC(C)=O)[C@@H]2NC(=O)[C@H](NC(=O)[C@@H]4NC(=O)[C@H]4NC(=O)[C@@H](Cc5ccc(c(Cl)c5)O3)NC(=O)[C@H](N)c3ccc(O)c(c3)Oc3cc(O)cc4c3)c3ccc(O)c(c3)-c3c(O[C@H]4O[C@H](CO)[C@@H](O)[C@@H](O)[C@@H]4O)cc(O)cc3[C@@H](C(=O)O)NC2=O)O[C@@H](CO)[C@@H](O)[C@@H]1O	Not Active
N[C@H](CSC(=S)NCc1ccccc1)C(=O)O	Not Active
CC(C)[C@H]1CC[C@H](C(=O)N[C@H](Cc2ccccc2)C(=O)O)CC1 [NATEGLINIDE]	Not Active
